The reported numbers originate from patent US9975852B2.

target: Trypsin-like proteasome activity in HeLa S3 cell lysates (Homo sapiens, UniProt Q99436); construct: proteasomes were extracted in 0.5% NP40 buffer; endogenous in cells; test: Proteasome activity assay, trypsin-like; conditions: read-out: Inhibition (IC50) Trypsin-like
Property name: pIC50
Entry type: numeric. Quantity: pIC50, the -log10 of concentration in molar units.

Lookup: Return pIC50 (reported value) for this molecule: O=[N+]([O-])c1ccc(S(=O)(=O)N2CCN(c3ccnc4cc(Cl)ccc34)CC2)c([N+](=O)[O-])c1
Found: 9.00

----------
So I've got a bunch of molecules here, and I need their melting point values.

Lookup: Item O=[N+]([O-])c1cccc(S(=O)(=O)N2CCN(c3ccnc4cc(C(F)(F)F)ccc34)CC2)c1 [Compound 6] : provide melting point
Found: 199 to 201 °C

Lookup: Consider the molecule O=[N+]([O-])c1ccc(S(=O)(=O)N2CCN(c3ccnc4cc(C(F)(F)F)ccc34)CC2)c([N+](=O)[O-])c1 [Compound 12] . State its measured melting point.
Found: 178 to 180 °C

Lookup: Retrieve melting point measured for O=S(=O)(NCCCNc1ccnc2cc(C(F)(F)F)ccc12)c1ccc(Cl)cc1Cl [Compound 30] and print it.
Found: 117 to 119 °C

Lookup: For the molecule O=[N+]([O-])c1ccc(S(=O)(=O)NCCCNc2ccnc3cc(C(F)(F)F)ccc23)c([N+](=O)[O-])c1 [Compound 25] , give its measured melting point value.
Found: 198 to 200 °C

Lookup: Dear colleague, please send me the reported melting point for O=S(=O)(NCCCNc1ccnc2cc(Cl)ccc12)c1ccc(Cl)cc1Cl [Compound 21] when you can.
Found: 145 to 147 °C

Lookup: Give melting point for O=S(=O)(NCCCNc1ccnc2cc(C(F)(F)F)ccc12)c1ccc(-c2ccccc2)cc1 [Compound 29]
Found: 110 to 112 °C

Lookup: // fetch melting point given entry O=[N+]([O-])c1ccc(S(=O)(=O)NCCCNc2ccnc3cc(Cl)ccc23)c([N+](=O)[O-])c1 [Compound 17]
Found: 238 to 240 °C

Lookup: Answer with reported melting point of Cc1ccc(S(=O)(=O)NCCCNc2ccnc3cc(C(F)(F)F)ccc23)cc1 [Compound 24]
Found: 77 to 79 °C

Lookup: Read off the recorded melting point for CS(=O)(=O)NCCCNc1ccnc2cc(C(F)(F)F)ccc12 [Compound 23]
Found: 171 to 173 °C

Lookup: Input O=S(=O)(c1ccc(Cl)cc1)N1CCN(c2ccnc3cc(C(F)(F)F)ccc23)CC1 [Compound 7] , output reported melting point.
Found: 144 to 146 °C

Lookup: Fill in reported melting point for this entry: O=S(=O)(NCCCNc1ccnc2cc(C(F)(F)F)ccc12)c1ccc(Cl)cc1 [Compound 27]
Found: 70 to 72 °C

Lookup: Retrieve melting point measured for O=[N+]([O-])c1cccc(S(=O)(=O)NCCCNc2ccnc3cc(C(F)(F)F)ccc23)c1 [Compound 26] and print it.
Found: 98 to 100 °C

Lookup: Return reported melting point. Input molecule: O=S(=O)(c1ccc(-c2ccccc2)cc1)N1CCN(c2ccnc3cc(C(F)(F)F)ccc23)CC1 [Compound 9]
Found: 148 to 150 °C

Lookup: Note down melting point recorded for Cc1ccc(S(=O)(=O)N2CCN(c3ccnc4cc(C(F)(F)F)ccc34)CC2)cc1 [Compound 8]
Found: 126 to 128 °C

Lookup: For CS(=O)(=O)N1CCN(c2ccnc3cc(C(F)(F)F)ccc23)CC1 [Compound 11] , write its melting point.
Found: 116 to 118 °C

Lookup: Check the records and state melting point for CN(C)c1cccc2c(S(=O)(=O)N3CCN(c4ccnc5cc(C(F)(F)F)ccc45)CC3)cccc12 [Compound 13]
Found: 98 to 100 °C

Lookup: Please report melting point for the following molecule: O=S(=O)(c1ccc(Cl)cc1Cl)N1CCN(c2ccnc3cc(Cl)ccc23)CC1 [Compound 5]
Found: 145 to 147 °C

----------
Tested on: MDA-MB468
Assay: SRB antiproliferative assay, MDA-MB468
Assay type: cell-based, human
Details: Homo sapiens, MDA-MB-468, 48 h
Method: Antiproliferative effects were determined by a sulforhodamine B (SRB) based protocol. For a typical screening experiment, 5,000-10,000 cells were inoculated into 100 μl medium per well of a 96-well microtiter plate as described previously. […] The relative growth rate (%) was calculated for each of the compound concentrations according to the following formula: (Ti−Tz)/(C−Tz)×100 In the formula, time zero (Tz), control growth (C), and OD for different concentration of tested compounds (Ti). […]
Property name: GI50 (µM)
Write the number in µM without appending the unit.

Lookup: Quick one: give measured GI50 for CN(C)c1cccc2c(S(=O)(=O)N3CCN(c4ccnc5cc(C(F)(F)F)ccc45)CC3)cccc12
Found: 19

Lookup: Consider the compound COC(=O)c1sccc1S(=O)(=O)NCCCNc1ccnc2cc(C(F)(F)F)ccc12 and give its recorded GI50.
Found: 4.55

Lookup: Please report the measured GI50 for O=[N+]([O-])c1ccc(S(=O)(=O)N2CCN(c3ccnc4cc(Cl)ccc34)CC2)c([N+](=O)[O-])c1
Found: 0.7

Lookup: Tell me GI50 reported for CS(=O)(=O)N1CCN(c2ccnc3cc(C(F)(F)F)ccc23)CC1
Found: 28.6

Lookup: Annotate the compound O=S(=O)(c1ccc(-c2ccccc2)cc1)N1CCN(c2ccnc3cc(Cl)ccc23)CC1 with its measured GI50.
Found: 18.2

Lookup: Please look at this compound and report its GI50: O=S(=O)(NCCCNc1ccnc2cc(Cl)ccc12)c1ccc(-c2ccccc2)cc1
Found: 4.46

Lookup: Given CCN(CC)CCCC(C)Nc1ccnc2cc(Cl)ccc12 (centres unmarked) [Chloroquine, reference compound] , respond with its GI50.
Found: 28.6

Lookup: State, in one line, measured GI50 of CN(C)c1cccc2c(S(=O)(=O)NCCCNc3ccnc4cc(C(F)(F)F)ccc34)cccc12
Found: 9.71

Lookup: Provide one value: measured GI50 of O=S(=O)(c1ccc(Cl)cc1)N1CCN(c2ccnc3cc(C(F)(F)F)ccc23)CC1
Found: 34.9

Lookup: Identify measured GI50 corresponding to O=[N+]([O-])c1cccc(S(=O)(=O)NCCCNc2ccnc3cc(Cl)ccc23)c1
Found: 9.21

Lookup: State, in one line, measured GI50 of O=[N+]([O-])c1ccc(S(=O)(=O)NCCCNc2ccnc3cc(C(F)(F)F)ccc23)c([N+](=O)[O-])c1
Found: 8.46

Lookup: Please give the documented GI50 of O=S(=O)(NCCCNc1ccnc2cc(C(F)(F)F)ccc12)c1ccc(Cl)cc1Cl
Found: 3.94

Lookup: Output measured GI50 for this item: O=S(=O)(NCCCNc1ccnc2cc(Cl)ccc12)c1ccc(Cl)cc1Cl
Found: 3.61

Lookup: Give a short answer stating reported GI50 for Cc1ccc(S(=O)(=O)N2CCN(c3ccnc4cc(Cl)ccc34)CC2)cc1 .
Found: 5.77

Lookup: Read the entry Cc1ccc(S(=O)(=O)NCCCNc2ccnc3cc(Cl)ccc23)cc1 and write its reported GI50.
Found: 5.77

Lookup: Annotate the compound CS(=O)(=O)NCCCNc1ccnc2cc(C(F)(F)F)ccc12 with its measured GI50.
Found: 30.4

Lookup: Provide one value: measured GI50 of CN(C)c1cccc2c(S(=O)(=O)N3CCN(c4ccnc5cc(Cl)ccc45)CC3)cccc12
Found: 27.5

----------
I'd be grateful if you could share measured GI50 for these entries.
tested on: MCF7; experiment: SRB antiproliferative assay, MCF7; type: cell-based, human; settings: Homo sapiens, MCF7; SRB, 48 h; read-out: GI50 MCF7
Answer format: numeric, µM implied, no suffix.

Lookup: For the compound CN(C)c1cccc2c(S(=O)(=O)N3CCN(c4ccnc5cc(C(F)(F)F)ccc45)CC3)cccc12 [Compound 13] , give its measured GI50 value.
Found: 12.8

Lookup: Please list GI50 recorded for the compound Cc1ccc(S(=O)(=O)N2CCN(c3ccnc4cc(Cl)ccc34)CC2)cc1 [VR-22 (38)]
Found: 5.25

Lookup: Indicate its recorded GI50; the compound in question is O=S(=O)(c1ccc(Cl)cc1Cl)N1CCN(c2ccnc3cc(Cl)ccc23)CC1 [Compound 5]
Found: 13.5

----------
target: Caspase-like proteasome activity in HeLa S3 cell lysates (Homo sapiens, UniProt P28072); construct: proteasomes were extracted in 0.5% NP40 buffer; endogenous in cells; assay: Proteasome activity assay, caspase-like; details: read-out: Inhibition (IC50) Caspase-like
Property name: IC50 (µM)
Provide the reading as a plain figure in µM.

Lookup: Return IC50 for the following compound: O=[N+]([O-])c1ccc(S(=O)(=O)N2CCN(c3ccnc4cc(Cl)ccc34)CC2)c([N+](=O)[O-])c1
Found: 3

----------
system: MCF7; assay: SRB antiproliferative assay, MCF7; type: cell-based, human; details: Homo sapiens, MCF7; SRB, 48 h; read-out: GI50 MCF7
Property name: GI50 (µM)
Express your answer in µM, writing the number without its unit.

Lookup: Please respond with reported GI50 (system MCF7) for O=S(=O)(c1ccc(Cl)cc1Cl)N1CCN(c2ccnc3cc(C(F)(F)F)ccc23)CC1 [Compound 10] .
Found: 16.7

Lookup: Tell me GI50 of O=[N+]([O-])c1cccc(S(=O)(=O)N2CCN(c3ccnc4cc(Cl)ccc34)CC2)c1 [VR-25 (40)] when tested on MCF7.
Found: 8.62

Lookup: Give reported GI50 for O=S(=O)(c1ccc(Cl)cc1)N1CCN(c2ccnc3cc(C(F)(F)F)ccc23)CC1 [Compound 7] (MCF7)
Found: 27.4

Lookup: Please respond with reported GI50 (system MCF7) for O=S(=O)(NCCCNc1ccnc2cc(C(F)(F)F)ccc12)c1ccc(Cl)cc1 [Compound 27] .
Found: 5.44
